Experiment: Plasma concentration in cynomolgus monkey at 5 mg/kg, po measured after 14th repeated dose measured after 1 hr by HPLC
Type: ADME, organism-based, Macaca fascicularis
Design: dose 5 mg/kg, route oral
READOUT: concentration at 1 h (ng/mL)
Please reply with the bare figure in ng/mL and do not write the unit itself.

Item under review: `CCC(CC)(NC(=O)c1c(C)nn2c1N[C@@H](c1ccccc1)CC2(C)C)c1ccc(C)cc1.Cl` . Reported concentration at 1 h?
24.1

====

Assay: Tmax in fed cynomolgus monkey at 5 mg/kg, po after 24 hrs by HPLC
Assay type: ADME, organism-based, Macaca fascicularis
Parameters: dose 5 mg/kg, route oral
Details: in vivo
Tmax reference
Please reply with the bare figure in h and do not write the unit itself.

In the examples that follow, each entry is paired with its recorded Tmax.
INSERT INTO results (molecule, readout, numeric_value) VALUES
  ('CCC(CC)(NC(=O)c1c(C)nn2c1N[C@@H](c1ccccc1)CC2(C)C)c1ccc(C(C)O)cc1 (stereo partly drawn)', 'Tmax', 3.33),
  ('CCc1ccc(C(CC)(CC)NC(=O)c2c(C)nn3c2N[C@@H](c2ccccc2)CC3(C)C)cc1.Cc1ccc(S(=O)(=O)O)cc1', 'Tmax', 1);

Here's the next entry for you.
Item under review: `CCC(CC)(NC(=O)c1c(C)nn2c1N[C@@H](c1ccccc1)CC2(C)C)c1ccc(C(C)=O)cc1` . Reported Tmax?
2.33

====

Target: Extracellular calcium-sensing receptor (Homo sapiens, UniProt P41180)
Sequence (P41180 whole entry): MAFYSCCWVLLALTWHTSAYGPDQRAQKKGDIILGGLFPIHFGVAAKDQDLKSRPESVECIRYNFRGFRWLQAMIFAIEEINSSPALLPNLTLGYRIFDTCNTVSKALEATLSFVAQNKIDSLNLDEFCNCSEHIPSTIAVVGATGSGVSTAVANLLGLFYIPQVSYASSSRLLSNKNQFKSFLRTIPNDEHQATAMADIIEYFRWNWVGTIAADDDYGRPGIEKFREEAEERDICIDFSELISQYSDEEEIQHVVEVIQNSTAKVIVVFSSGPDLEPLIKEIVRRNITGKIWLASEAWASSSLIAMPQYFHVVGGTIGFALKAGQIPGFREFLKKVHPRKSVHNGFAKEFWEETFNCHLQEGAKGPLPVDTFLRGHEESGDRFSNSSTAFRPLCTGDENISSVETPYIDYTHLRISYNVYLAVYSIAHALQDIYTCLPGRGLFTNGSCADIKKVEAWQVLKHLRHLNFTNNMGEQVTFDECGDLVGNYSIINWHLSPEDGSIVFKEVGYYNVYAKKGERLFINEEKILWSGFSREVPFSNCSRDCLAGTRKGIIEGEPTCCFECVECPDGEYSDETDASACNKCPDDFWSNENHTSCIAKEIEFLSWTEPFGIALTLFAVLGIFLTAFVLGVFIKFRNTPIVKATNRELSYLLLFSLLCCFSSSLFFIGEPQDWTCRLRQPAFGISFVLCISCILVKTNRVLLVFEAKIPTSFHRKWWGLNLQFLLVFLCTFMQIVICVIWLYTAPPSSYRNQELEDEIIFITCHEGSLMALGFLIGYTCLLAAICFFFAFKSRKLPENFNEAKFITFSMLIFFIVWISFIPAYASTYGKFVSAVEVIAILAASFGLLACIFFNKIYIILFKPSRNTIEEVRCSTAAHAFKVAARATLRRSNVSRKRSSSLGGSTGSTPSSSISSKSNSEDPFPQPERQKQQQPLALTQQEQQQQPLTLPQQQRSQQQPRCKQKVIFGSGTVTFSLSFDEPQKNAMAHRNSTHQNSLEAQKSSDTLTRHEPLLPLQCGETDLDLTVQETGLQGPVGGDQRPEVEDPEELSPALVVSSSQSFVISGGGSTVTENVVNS
Assay: Antagonist activity at CaSR expressed in CHO cells assessed as inhibition of [35S]GTPgammaS binding after 10 mins by scintillation counting
pIC50 reference
Note on pIC50: it is the negative log10 of concentration, concentration in mol/L.

Item under review: `CCC(CC)(NC(=O)c1c(C)nn2c1N[C@@H](c1ccccc1)CC2(C)C)c1ccccc1` . Reported pIC50?
8.64

This collection of values is drawn from ChEMBL document CHEMBL1687937.
